protocol-text: HUVEC growth inhibition – cell-based, human, primary screen (AID 575);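 note: 100% = median of untreated cell wells with 0.1% DMSO on each plate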
test-context: HUVEC proliferation, CellTiter-Glo luminescence, 72 h; at 10 µM; active compounds read low
reported-metric: viability (%)
All answers are understood in %, so give the number only.

Input: Report viability for CCc1nnc(NC(=O)c2ccc(-c3cccc(C(F)(F)F)c3)o2)s1 please.
Output: 102

Input: Using the record for CCS(=O)(=O)N1CCCC(C(=O)NCCc2ccc(OC)c(OC)c2)C1 (stereo unspecified) , report its viability.
Output: 101

====

protocol-text: growth inhibitors of H69AR lung tumor, primary screen, human, duplicate replicates (AID 580);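 note: 100% = mean luminescence of untreated wells and 0% = no signal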
test-context: H69AR lung tumor cells viability, ATP luminescence, 72 h; at 10 µM; active compounds read low
reported-metric: viability (%)
Report only the number, with the unit % understood.

Input: Value lookup for viability; key = Cc1ccc(-c2nnn(CC(=O)N(CC(=O)NCC3CCCO3)c3ccccc3)n2)o1 (configuration not stated)
Output: 90.9

Input: I'd like to know its viability. The molecule in question is Cc1ccc2c(c1)C(O)(CC(=O)c1ccc3c(c1)OCO3)C(=O)N2 (configuration not stated)
Output: 94.3

Input: Which value of viability has been reported for c1coc(-c2nnc(-c3cccs3)o2)c1 in the records?
Output: 102

Input: Bench note: what viability did COC(=O)c1ccccc1NC(=O)Cn1c(-c2nonc2N)nc2ccccc21 show?
Output: 15.7

***
Input: For the molecule shown here, COc1cccc(-c2cc3nc4c(c(N5CCC6(CC5)OCCO6)n3n2)CCCC4)c1 , give the reported viability.
Output: 58.5

Input: Look at this molecule and give its reported viability. O=C(Nc1ccc(Cl)c(C(F)(F)F)c1)N1CCCC(O)C1 (configuration not stated)
Output: 105

Input: # input molecule: COc1cccc(/C=N/n2c(-c3ccco3)nc3ccccc3c2=O)c1 ; wanted: its viability
Output: 73.2

Reference source: PubChem BioAssay
